- TESTED TARGET: Recombinant PLA2G1B (Homo sapiens, UniProt P04054)
- Sequence (P04054 23-148): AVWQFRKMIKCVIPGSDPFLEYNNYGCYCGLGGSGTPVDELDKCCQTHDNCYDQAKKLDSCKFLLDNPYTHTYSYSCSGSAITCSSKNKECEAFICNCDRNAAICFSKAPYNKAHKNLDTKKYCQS
- EXPERIMENT SUMMARY: Bioassay of IL-7-induced pSTAT5 nuclear translocation in CD4 T cells exposed to recombinant PLA2G1B
PROPERTY LABEL: pIC50
Would you please state pIC50, meaning minus log10 of the concentration in mol/L, as a bare number?

### Prompt Any idea what its pIC50 is? The compound is CCc1c(C(=O)C(N)=O)c2c(OCC(=O)O)cccc2n1Cc1ccccc1
### Response 5.22
